Items are presented alongside their recorded pIC50.
- TEST SYSTEM: endogenous CGRP receptor (Homo sapiens, UniProt O60894+Q16602)
- Sequence (Q16602 23-461): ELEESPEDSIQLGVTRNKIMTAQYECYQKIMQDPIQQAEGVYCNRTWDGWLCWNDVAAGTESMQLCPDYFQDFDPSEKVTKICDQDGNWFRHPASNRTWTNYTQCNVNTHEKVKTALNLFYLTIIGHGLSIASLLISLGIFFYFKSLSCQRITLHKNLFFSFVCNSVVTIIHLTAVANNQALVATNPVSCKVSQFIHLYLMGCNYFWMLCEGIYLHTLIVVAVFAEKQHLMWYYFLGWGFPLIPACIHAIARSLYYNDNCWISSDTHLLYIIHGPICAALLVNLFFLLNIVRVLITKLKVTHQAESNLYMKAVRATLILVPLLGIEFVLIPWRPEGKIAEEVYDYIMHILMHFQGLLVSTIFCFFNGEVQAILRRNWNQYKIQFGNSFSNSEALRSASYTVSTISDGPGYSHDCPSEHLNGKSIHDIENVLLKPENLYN
- Sequence (O60894 27-148): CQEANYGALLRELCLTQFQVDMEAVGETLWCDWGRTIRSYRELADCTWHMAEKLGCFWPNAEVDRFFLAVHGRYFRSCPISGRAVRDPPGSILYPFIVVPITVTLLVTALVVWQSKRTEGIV
- MEASUREMENT DESCRIPTION: CGRP functional antagonism using SK-N-MC-BLA (4C10), β-lactamase transcriptional reporter assay
- DETAILS: SK-N-MC (4C10) cells, inhibition of β-lactamase expression in the presence of 200 pM CGRP
pIC50: −log10 of the molar value.

CC(C)CCN1C(=O)C(CC(=O)N2CCC(NC(=O)Nc3ccccn3)CC2)SC1c1ccccc1 (centres unmarked) : < 5.30
CC(C)CCN1C(=O)C(CC(=O)N2CCC(N3CCc4ccccc4NC3=O)CC2)SC1c1cccnc1N1CCOCC1 (centres unmarked) : > 6.00
CC(C)CN1C(=O)C(CC(=O)N2CCC(N3Cc4ccccc4NC3=O)CC2)SC1c1ccccc1 (centres unmarked) : > 6.00
CC(C)CCN1C(=O)C(CC(=O)N2CCC(N3CCc4ccccc4NC3=O)CC2)SC1c1ccccc1OCc1ccccc1 (centres unmarked) : > 6.00
CC(C)CCN1C(=O)C(CC(=O)N2CCC(N3Cc4ccccc4NC3=O)CC2)SC1c1ccc(C(C)(C)C)cc1 (centres unmarked) : < 5.30

Exercise: Give reported pIC50 value for CC(C)CC1SC(CC(=O)N2CCC(N3Cc4ccccc4NC3=O)CC2)C(=O)N1CCc1ccncc1 (centres unmarked)
Key: 5.30 to 6.00

Exercise: Give reported pIC50 value for CC(C)CCN1C(=O)C(CC(=O)N2CCC(N3CCc4ccccc4NC3=O)CC2)SC1c1cccc(OC(F)(F)C(F)F)c1 (centres unmarked)
Key: 5.30 to 6.00

Exercise: Give reported pIC50 value for CN(C)c1ccccc1C1SC(CC(=O)N2CCC(N3Cc4ccccc4NC3=O)CC2)C(=O)N1CCC(C)(C)C (centres unmarked) [Compound 198]
Key: > 6.00

Exercise: Give reported pIC50 value for CN1CCCC1CCN1C(=O)C(CC(=O)N2CCC(N3Cc4ccccc4NC3=O)CC2)SC1c1ccccc1 (centres unmarked)
Key: < 5.30

Exercise: Give reported pIC50 value for CC(C)(C)CCN1C(=O)C(CC(=O)N2CCC(N3CCc4ccccc4NC3=O)CC2)SC1c1ccc(F)cc1F (centres unmarked)
Key: > 6.00

Exercise: Give reported pIC50 value for CC(C)(C)CCN1C(=O)[C@H](CC(=O)N2CCC(N3CCc4ccccc4NC3=O)CC2)SC1c1ccccc1C1CCN(C(=O)OC(C)(C)C)CC1 (mixture of isomers)
Key: < 5.30

Exercise: Give reported pIC50 value for CC(C)CCN1C(=O)C(CC(=O)N2CCC(n3cc(-c4ccccc4)[nH]c3=O)CC2)SC1c1ccc(F)cc1F (centres unmarked)
Key: > 6.00

Exercise: Give reported pIC50 value for CC(C)(C)CCN1C(=O)C(CC(=O)N2CCC(n3c(=O)[nH]c4ncccc43)CC2)SC1c1cccc(F)c1N1CCN(CC(F)(F)F)CC1 (centres unmarked)
Key: > 6.00

Exercise: Give reported pIC50 value for CC(C)CCN1C(=O)C(CC(=O)N2CCC(N3C(=O)Cc4ccccc43)CC2)SC1c1ccccc1 (centres unmarked)
Key: < 5.30

---

Items are presented alongside their recorded pIC50.
- TEST SYSTEM: endogenous CGRP receptor (Homo sapiens, UniProt O60894+Q16602)
- MEASUREMENT DESCRIPTION: CGRP functional antagonism using SK-N-MC-BLA (4C10), β-lactamase transcriptional reporter assay
- DETAILS: SK-N-MC (4C10) cells, inhibition of β-lactamase expression in the presence of 200 pM CGRP
pIC50: −log10 of the molar value.

Here's what some known entries look like.
CC(C)(C)N1CCN(c2c(F)cccc2[C@H]2S[C@@H](CC(=O)N3CCC(N4CCc5ccccc5NC4=O)CC3)C(=O)N2CC2CCOCC2)CC1 : > 6.00
CN1CCN(c2ccccc2C2SC(CC(=O)N3CCC(N4Cc5cccnc5NC4=O)CC3)C(=O)N2CCC(C)(C)C)CC1 (stereo not drawn) : > 6.00
C#CCN1C(=O)C(CC(=O)N2CCC(N3Cc4ccccc4NC3=O)CC2)SC1c1ccccc1 (stereo not drawn) : 5.30 to 6.00

Exercise: Give reported pIC50 value for CC(C)(C)CCN1C(=O)[C@H](CC(=O)N2CCC(N3CCc4ccccc4NC3=O)CC2)S[C@H]1c1cccc(F)c1C1CCNCC1
Key: 5.30 to 6.00

Exercise: Give reported pIC50 value for CC(C)(C)N1CCN(c2c(F)cccc2[C@@H]2S[C@@H](CC(=O)N3CCC(N4CCc5ccccc5NC4=O)CC3)C(=O)N2CC2CCOCC2)CC1
Key: > 6.00

Exercise: Give reported pIC50 value for Cc1cc(C2SC(CC(=O)N3CCC(N4Cc5ccccc5NC4=O)CC3)C(=O)N2CCC(C)(C)C)cc2cn[nH]c12 (stereo not drawn)
Key: > 6.00

Exercise: Give reported pIC50 value for CC(C)(C)CCN1C(=O)[C@H](CC(=O)N2CCC(N3CCc4ccccc4NC3=O)CC2)SC1c1cc(F)cc(F)c1N1CCN(C(C)(C)C)CC1 (stereo partly drawn)
Key: > 6.00

Exercise: Give reported pIC50 value for Cc1ccc(C2SC(CC(=O)N3CCC(N4CCc5ccccc5NC4=O)CC3)C(=O)N2CCC(C)C)c(C)c1 (stereo not drawn)
Key: > 6.00

Exercise: Give reported pIC50 value for CC(C)(C)CCN1C(=O)C(CC(=O)N2CCC(N3Cc4ccccc4NC3=O)CC2)SC1c1ncc[nH]1 (stereo not drawn)
Key: < 5.30

Exercise: Give reported pIC50 value for CCN1C(=O)C(CC(=O)N2CCC(N3CCc4ccccc4NC3=O)CC2)SC1c1ccccc1 (stereo not drawn)
Key: 5.30 to 6.00

Exercise: Give reported pIC50 value for CC(C)CCN1C(=O)C(CC(=O)N2CCC(n3c(=O)[nH]c4ccccc43)CC2)S[C@H]1c1ccccc1N1CCC(O)CC1 (stereo partly drawn)
Key: > 6.00

Exercise: Give reported pIC50 value for CC(C)CCN1C(=O)C(CC(=O)N2CCC3(CC2)C(=O)NCN3c2ccccc2)SC1c1ccccc1 (stereo not drawn)
Key: < 5.30

Exercise: Give reported pIC50 value for CC(C)(C)CCN1C(=O)C(CC(=O)N2CCC(N3Cc4ccccc4NC3=O)CC2)SC1c1ccc(F)cc1F (stereo not drawn)
Key: > 6.00

Exercise: Give reported pIC50 value for O=C(CC1SC(c2ccccc2)N(c2ccc3[nH]ncc3c2)C1=O)N1CCC(N2Cc3ccccc3NC2=O)CC1 (stereo not drawn)
Key: 5.30 to 6.00

Exercise: Give reported pIC50 value for Cc1cc(C2SC(CC(=O)N3CCC(N4Cc5ccccc5NC4=O)CC3)C(=O)N2CC2CCCCC2)cc2cn[nH]c12 (stereo not drawn)
Key: > 6.00

Exercise: Give reported pIC50 value for CN1CCN(c2ccccc2C2SC(CC(=O)N3CCC(CO)CC3)C(=O)N2CCC(C)(C)C)CC1 (stereo not drawn)
Key: < 5.30

Exercise: Give reported pIC50 value for CC(C)OCCN1C(=O)[C@H](CC(=O)N2CCC(N3CCc4ccccc4NC3=O)CC2)SC1c1cccc(F)c1N1CCN(C(C)(C)C)CC1 (stereo partly drawn) [Compound 526]
Key: > 6.00

Exercise: Give reported pIC50 value for N#Cc1ccccc1C1SC(CC(=O)N2CCC(N3Cc4ccccc4NC3=O)CC2)C(=O)N1CC1CCCCC1 (stereo not drawn)
Key: > 6.00

Exercise: Give reported pIC50 value for CN1CCN(c2c(F)cccc2C2SC(CC(=O)N3CCC(N4Cc5ccccc5NC4=O)CC3)C(=O)N2CCC(C)(C)C)CC1 (stereo not drawn)
Key: > 6.00

Exercise: Give reported pIC50 value for CC(C)N1CCN(c2ncccc2C2S[C@@H](CC(=O)N3CCC(n4c(=O)[nH]c5ncccc54)CC3)C(=O)N2CCC(C)(C)C)CC1 (stereo partly drawn)
Key: > 6.00

Exercise: Give reported pIC50 value for CC(C)(C)CCN1C(=O)C(CC(=O)N2CCC(N3Cc4ccccc4NC3=O)CC2)SC12CCSCC2 (stereo not drawn)
Key: > 6.00

Exercise: Give reported pIC50 value for CC(C)CCN1C(=O)C(CC(=O)N2CCC(N3Cc4ccccc4NC3=O)CC2)SC1c1ccc(Br)cc1 (stereo not drawn)
Key: 5.30 to 6.00

Exercise: Give reported pIC50 value for CN1CCN(c2ccccc2[C@@H]2SC(CC(=O)N3CCC(n4c(=O)[nH]c5ccccc54)CC3)C(=O)N2CCC(C)(C)C)CC1 (stereo partly drawn)
Key: > 6.00
